Test system: HCV pseudotype (HIV core proteins, HCV E1 and E2 of strain H77)
Conditions: 25 μM
Ends that are not written are not given here.
Rule: Satisfied for Percent inhibition not less than 20%, Not satisfied for anything less.

DWFAQGWGPITYTKPNSS [compound 89, DWFAQGWGPITYTKPNSS]
Not satisfied
GNWFGCTWMNSTGFTKVC [compound 23]
Not satisfied
TYSWGENETDVMLLNNTR [compound 97, TYSWGENETDVMLLNNTR]
Satisfied
GNRILICPTDCFRKHPEA [compound 103]
Satisfied
YTIFKVRMYVGGVEHRLE [compound 34, YTIFKVRMYVGGVEHRLE]
Satisfied

Lookup: Hi, just wondering whether AGVDAETHVTGGSAGRTT [peptide 1, AGVDAETHVTGGSAGRTT] shows Percent inhibition of 20% or higher.
Found: Satisfied

Lookup: Next record, please: TSLFSSGASQKIQLVNTN [compound 82, TSLFSSGASQKIQLVNTN]
Found: Satisfied

Lookup: Can you check TDFAQGWGPISYANGSGL [compound 12, TDFAQGWGPISYANGSGL] next?
Found: Not satisfied

====

Test system: HCV pseudotype (HIV core proteins, HCV E1 and E2 of strain H77)
Conditions: 25 μM
Ends that are not written are not given here.
Outcome measure: Percent inhibition (%)
One number for each entry, in %.

Look over these answered cases.
DTDVFVLNNTRPPLGNWF [compound 21, DTDVFVLNNTRPPLGNWF]
45.9
GPISYANGSGLDERPYCW [compound 13, GPISYANGSGLDERPYCW]
31.1
LLSTTEWQILPCAFTTLP [compound 115, LLSTTEWQILPCAFTTLP]
−6.2
SPVVVGTTDRSGVPTYSW [compound 95, SPVVVGTTDRSGVPTYSW]
−20.1
PVYCFTPSPVVVGTTDRS [compound 18, PVYCFTPSPVVVGTTDRS]
2.9

Please state, for each entry, its recorded Percent inhibition.
1. YLYGVGSSIASWAIKWEY [compound 45, YLYGVGSSIASWAIKWEY]
2. TTLPALSTGLIHLHQNIV [compound 42, TTLPALSTGLIHLHQNIV]
3. SSGCPERLASCRRLTDFA [compound 10]
4. RCGSGPWITPRCMVDYPY [compound 30]
5. LTPRCLVDYPYRLWHYPC [compound 107]

Found:
94.5
19.1
25.4
−46.2
11.1

====

System: HCV pseudotype (HIV core proteins, HCV E1 and E2 of strain H77)
Settings: HCV J4 1b E2 peptides at ~25 μM; Table 8; controls as in Table 7
Outcome measure: Luciferase units

CSCC[C@H](NC(=O)[C@H](Cc1c[nH]c2ccccc12)NC(=O)[C@@H](NC(=O)[C@H](CS)NC(=O)CNC(=O)[C@H](Cc1ccccc1)NC(=O)[C@H](Cc1c[nH]c2ccccc12)NC(=O)[C@H](CC(N)=O)NC(=O)CNC(=O)[C@H](CCC(N)=O)NC(=O)[C@@H]1CCCN1C(=O)[C@@H]1CCCN1C(=O)[C@H](CCCNC(=N)N)NC(=O)[C@@H](NC(=O)[C@H](CC(N)=O)NC(=O)[C@@H](N)CC(N)=O)[C@@H](C)O)[C@@H](C)O)C(=O)N[C@@H](CC(N)=O)C(=O)N[C@@H](CO)C(=O)O
111,043 luciferase units (lumens)

I need Luciferase units for every entry listed below, if you could help.
1. CSCC[C@H](N)C(=O)N[C@@H](Cc1ccc(O)cc1)C(=O)N[C@H](C(=O)NCC(=O)NCC(=O)N[C@H](C(=O)N[C@@H](CCC(=O)O)C(=O)N[C@@H](Cc1c[nH]cn1)C(=O)N[C@@H](CCCNC(=N)N)C(=O)N[C@@H](CC(C)C)C(=O)N[C@@H](CC(N)=O)C(=O)N[C@@H](C)C(=O)N[C@@H](C)C(=O)N[C@@H](CS)C(=O)N[C@@H](CC(N)=O)C(=O)N[C@@H](Cc1c[nH]c2ccccc12)C(=O)N[C@H](C(=O)N[C@@H](CCCNC(=N)N)C(=O)O)[C@@H](C)O)C(C)C)C(C)C
2. CC[C@H](C)[C@H](NC(=O)[C@H](Cc1c[nH]cn1)NC(=O)[C@H](Cc1c[nH]c2ccccc12)NC(=O)[C@H](CO)NC(=O)CNC(=O)[C@H](CC(N)=O)NC(=O)[C@@H](NC(=O)[C@H](CC(N)=O)NC(=O)[C@@H](NC(=O)[C@H](CC(C)C)NC(=O)[C@H](CCC(N)=O)NC(=O)[C@@H](NC(=O)[C@H](CCCCN)NC(=O)[C@H](CCC(N)=O)NC(=O)[C@H](CO)NC(=O)[C@H](C)N)[C@@H](C)CC)C(C)C)[C@@H](C)O)C(=O)N[C@@H](CC(N)=O)C(=O)N[C@@H](CCCNC(=N)N)C(=O)O
3. CC(C)C[C@H](NC(=O)[C@H](C)NC(=O)[C@H](C)NC(=O)[C@H](Cc1ccccc1)NC(=O)[C@H](Cc1ccccc1)NC(=O)CNC(=O)[C@@H](NC(=O)[C@H](CCC(N)=O)NC(=O)[C@H](CC(C)C)NC(=O)[C@H](CO)NC(=O)[C@H](CC(=O)O)NC(=O)[C@H](CC(N)=O)NC(=O)[C@H](CS)NC(=O)[C@@H](N)CC(N)=O)[C@@H](C)O)C(=O)N[C@@H](Cc1ccccc1)C(=O)N[C@@H](Cc1ccc(O)cc1)C(=O)N[C@@H](C)C(=O)N[C@@H](Cc1c[nH]cn1)C(=O)O

Found:
602,506 luciferase units (lumens)
518,993 luciferase units (lumens)
112,260 luciferase units (lumens)
